biological target: T1, Galectin-3 (UniProt P17931 1-250, limits assumed); assay: ELISA, eight 2-fold dilutions starting from 1.5 uM
T1 construct: Immobilized on magnetic particles for panning and on ELISA wells via NeutrAvidin; also called Gal-3; target Galectin-3
T1 sequence (P17931 whole entry): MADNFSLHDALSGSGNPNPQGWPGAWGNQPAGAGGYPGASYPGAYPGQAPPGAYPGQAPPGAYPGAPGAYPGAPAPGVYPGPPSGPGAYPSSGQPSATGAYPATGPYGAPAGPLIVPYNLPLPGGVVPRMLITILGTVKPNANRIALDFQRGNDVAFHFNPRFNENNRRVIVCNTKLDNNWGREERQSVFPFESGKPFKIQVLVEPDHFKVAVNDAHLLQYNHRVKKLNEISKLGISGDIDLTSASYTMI
Reported property: EC50 (nM)
Dear colleague, please return just the value in nM, with no unit written.

# input Value lookup for EC50; key = 1H2 mutant (2u2f mutant from Cluster 1) (designed binder, Purified monomer from a pET22b vector in E. coli (IMAC, SEC); The tag is not described) AHKLFIGGLPVDYNDDQVKELLTSFGPLKAFNLVKDSATGLSKGYAFAEYVDINVTDQAIAGLNGSGSRIRALLVQRASVGAKNADYKDDDDKLEHHHHHH
# output 79.9

# input Endpoint output: EC50 of 3B5 mutant (2u2f mutant from Cluster 3) (designed binder, Purified monomer from a pET22b vector in E. coli (IMAC, SEC); The tag is not described) AHKLFIGGLPADGDDDQVKELLTSFGPLKAFNLVKDSATGLSKGYAFAEYVDINVTDQAIAGLNGFATSRFSLLVQRASVGAKNADYKDDDDKLEHHHHHH . Value?
# output 277

# input Endpoint output: EC50 of 1E2 mutant (2u2f mutant from Cluster 1) (designed binder, Purified monomer from a pET22b vector in E. coli (IMAC, SEC); The tag is not described) AHKLFIGGLPVDYNDDQVKELLTSFGPLKAFNLVKDSATGLSKGYAFAEYVDINVTDQAIAGLNGNVCHLHTLLVQRASVGAKNADYKDDDDKLEHHHHHH . Value?
# output 92.5

# input Look up EC50: 4H5 mutant (2u2f mutant from Cluster 4) (designed binder, Purified monomer from a pET22b vector in E. coli (IMAC, SEC); The tag is not described) AHKLFIGGLPDYYGDDQVKELLTSFGPLKAFNLVKDSATGLSKGYAFAEYVDINVTDQAIAGLNGRFYGTATLLVQRASVGAKNADYKDDDDKLEHHHHHH
# output 201

These entries and their values trace back to patent US20250182853A1.
